Sourced from a melting point compilation (Tetko et al.)

quantity: melting point

These recorded examples may help you get a feel for the data.
{"compound": "Cn1cc(C(=O)O)c(C2CCCCC2)n1", "melting point": "157 to 159 °C"}
{"compound": "C1CCC(c2nnn[nH]2)C1", "melting point": "119 to 121 °C"}
{"compound": "CC(C)(C)OC(=O)NCCCN", "melting point": "22 to 24 °C"}
{"compound": "NS(=O)(=O)C(F)F", "melting point": "59 to 61 °C"}
{"compound": "Sc1nnnn1-c1ccc(Cl)cc1", "melting point": "162 to 164 °C"}

// next item, melting point requested
Task item: # input compound: `Nc1ncc(Cc2cccc(F)c2)s1` ; wanted: its melting point
Reply: 82 to 84 °C
